organism: Rattus norvegicus; assay: Open TG-GATES - Regimen: Daily Repeat; format: toxicity, organism-based, Sprague-Dawley; set-up: regimen Daily Repeat, gender Male, age 6 weeks; conditions: in vivo, po, 0 mg/kg, […], tissue Plasma, route gavage, dose level Control, time 28 day
In this section, each of the compounds is paired with its reported Na.
Give the value in meq/L but do not write meq/L after it.

1) O=NN(CCCl)C(=O)NC1CCCCC1 | 140
2) CCc1oc2ccccc2c1C(=O)c1cc(Br)c(O)c(Br)c1 | 139.4
3) OCCOCCN1CCN(C(c2ccccc2)c2ccc(Cl)cc2)CC1 (stereo unspecified) [HYDROXYZINE] | 142.8
4) CCCCc1oc2ccccc2c1C(=O)c1cc(I)c(OCCN(CC)CC)c(I)c1 | 140.2

Challenge: Recorded Na for CN(C)C(=N)N=C(N)N , please?
Response given: 145

Challenge: Recorded Na for CC[C@H]1[C@@H]2C[C@H]3[C@@H]4N(C)c5ccccc5[C@]45C[C@@H]([C@@H]2[C@H]5O)N3[C@@H]1O , please?
Response given: 142.6

Challenge: Recorded Na for CCC1(c2ccccc2)C(=O)NC(=O)NC1=O , please?
Response given: 140.4

Challenge: Recorded Na for CC1=C(CC(=O)O)c2cc(F)ccc2/C1=C\c1ccc([S+](C)[O-])cc1 (stereo unspecified) , please?
Response given: 142

Challenge: Recorded Na for CN(C)CCC=C1c2ccccc2COc2ccccc21 [DOXEPIN] , please?
Response given: 143.4

Challenge: Recorded Na for CC(C)N(CCC(C(N)=O)(c1ccccc1)c1ccccn1)C(C)C (stereo unspecified) [DISOPYRAMIDE] , please?
Response given: 140.6

Challenge: Recorded Na for ClC(Cl)(Cl)Cl [CARBON TETRACHLORIDE] , please?
Response given: 140.4

====

organism: Rattus norvegicus; test: Open TG-GATES - Regimen: Daily Repeat; assay type: toxicity, organism-based, Sprague-Dawley; design: regimen Daily Repeat, gender Male, age 6 weeks; details: in vivo, po, 0 mg/kg, […], tissue Blood, route gavage, dose level Control, time 28 day
Quantity kind: Ret (%)
Give the value in % but do not write % after it.

1. CN(C)C(=N)N=C(N)N | 2.5
2. OCCOCCN1CCN(C(c2ccccc2)c2ccc(Cl)cc2)CC1 (stereo unspecified) [HYDROXYZINE] | 2.4
3. CCC1(c2ccccc2)C(=O)NC(=O)NC1=O | 2.6
4. CCc1oc2ccccc2c1C(=O)c1cc(Br)c(O)c(Br)c1 | 2.6
5. CC1=C(CC(=O)O)c2cc(F)ccc2/C1=C\c1ccc([S+](C)[O-])cc1 (stereo unspecified) | 2.4
6. O=NN(CCCl)C(=O)NC1CCCCC1 | 2.5

Challenge: Recorded Ret for CC[C@H]1[C@@H]2C[C@H]3[C@@H]4N(C)c5ccccc5[C@]45C[C@@H]([C@@H]2[C@H]5O)N3[C@@H]1O , please?
Response given: 2

Challenge: Recorded Ret for CCCCc1oc2ccccc2c1C(=O)c1cc(I)c(OCCN(CC)CC)c(I)c1 , please?
Response given: 2.6

Challenge: Recorded Ret for CN(C)CCC=C1c2ccccc2COc2ccccc21 [DOXEPIN] , please?
Response given: 3

Challenge: Recorded Ret for CC(C)N(CCC(C(N)=O)(c1ccccc1)c1ccccn1)C(C)C (stereo unspecified) [DISOPYRAMIDE] , please?
Response given: 3.4

Challenge: Recorded Ret for ClC(Cl)(Cl)Cl [CARBON TETRACHLORIDE] , please?
Response given: 2.8

====

In this section, each of the compounds is paired with its reported A/G.
species on record: Rattus norvegicus; experiment: Open TG-GATES - Regimen: Daily Repeat; assay type: toxicity, organism-based, Sprague-Dawley; design: regimen Daily Repeat, gender Male, age 6 weeks; conditions: in vivo, po, 0 mg/kg, 72 h, tissue Plasma, route gavage, dose level Control, time 3 day

Record excerpt, results attached:
1. CC1=C(CC(=O)O)c2cc(F)ccc2/C1=C\c1ccc([S+](C)[O-])cc1 (configuration not stated) | 0.9
2. O=NN(CCCl)C(=O)NC1CCCCC1 [LOMUSTINE] | 2

Challenge: Recorded A/G for ClC(Cl)(Cl)Cl [CARBON TETRACHLORIDE] , please?
Response given: 1.5

Challenge: Recorded A/G for OCCOCCN1CCN(C(c2ccccc2)c2ccc(Cl)cc2)CC1 (configuration not stated) [HYDROXYZINE] , please?
Response given: 0.9

Challenge: Recorded A/G for CCC1(c2ccccc2)C(=O)NC(=O)NC1=O [PHENOBARBITAL] , please?
Response given: 1.6

Challenge: Recorded A/G for CC[C@H]1[C@@H]2C[C@H]3[C@@H]4N(C)c5ccccc5[C@]45C[C@@H]([C@@H]2[C@H]5O)N3[C@@H]1O [AJMALINE] , please?
Response given: 2.2

Challenge: Recorded A/G for CCc1oc2ccccc2c1C(=O)c1cc(Br)c(O)c(Br)c1 [BENZBROMARONE] , please?
Response given: 2

====

In this section, each of the compounds is paired with its reported K.
species on record: Rattus norvegicus; assay: Open TG-GATES - Regimen: Daily Repeat; format: toxicity, organism-based, Sprague-Dawley; parameters: regimen Daily Repeat, gender Male, age 6 weeks; conditions: in vivo, po, 0 mg/kg, […], tissue Plasma, route gavage, dose level Control, time 14 day
Give the value in meq/L but do not write meq/L after it.

Record excerpt, results attached:
1) ClC(Cl)(Cl)Cl [CARBON TETRACHLORIDE] | 3.7
2) CN(C)C(=N)N=C(N)N [METFORMIN] | 4
3) CCC1(c2ccccc2)C(=O)NC(=O)NC1=O [PHENOBARBITAL] | 4.5

Challenge: Recorded K for CN(C)CCC=C1c2ccccc2COc2ccccc21 [DOXEPIN] , please?
Response given: 4.1

Challenge: Recorded K for CC1=C(CC(=O)O)c2cc(F)ccc2/C1=C\c1ccc([S+](C)[O-])cc1 (stereo not given) , please?
Response given: 3.8

====

organism: Rattus norvegicus; test: Open TG-GATES - Regimen: Single; type: toxicity, organism-based, Sprague-Dawley; parameters: regimen Single, gender Male, age 6 weeks; conditions: in vivo, po, 100 mg/kg, 24 h, tissue Plasma, route gavage, dose level Low
In this section, each of the molecules is paired with its reported DBIL.
Please report the result as a number followed by the unit.

Record excerpt, results attached:
1. O=NN1CCOCC1 | 0.046 mg/dL
2. CN(C)C(=N)N=C(N)N | 0.016 mg/dL
3. CN(C)CCC=C1c2ccccc2COc2ccccc21 [DOXEPIN] | 0.006 mg/dL

Please look at the following molecule next.
Challenge: Recorded DBIL for CCC1(c2ccccc2)C(=O)NC(=O)NC1=O , please?
Response given: 0.062 mg/dL

====

In this section, each of the molecules is paired with its reported MCH.
species on record: Rattus norvegicus; experiment: Open TG-GATES - Regimen: Single; format: toxicity, organism-based, Sprague-Dawley; parameters: regimen Single, gender Male, age 6 weeks; conditions: in vivo, po, 0 mg/kg, 6 h, tissue Blood, route gavage, dose level Control
Give the value in pg but do not write pg after it.

Record excerpt, results attached:
1. OCCOCCN1CCN(C(c2ccccc2)c2ccc(Cl)cc2)CC1 (centres undefined) [HYDROXYZINE] | 21.7
2. CC[C@H]1[C@@H]2C[C@H]3[C@@H]4N(C)c5ccccc5[C@]45C[C@@H]([C@@H]2[C@H]5O)N3[C@@H]1O | 21.5
3. CCc1oc2ccccc2c1C(=O)c1cc(Br)c(O)c(Br)c1 | 21.8

Please look at the following molecule next.
Challenge: Recorded MCH for CC1=C(CC(=O)O)c2cc(F)ccc2/C1=C\c1ccc([S+](C)[O-])cc1 (centres undefined) , please?
Response given: 20.7

====

species on record: Rattus norvegicus; assay: Open TG-GATES - Regimen: Single; assay type: toxicity, organism-based, Sprague-Dawley; set-up: regimen Single, gender Male, age 6 weeks; details: in vivo, po, 0 mg/kg, 6 h, tissue Blood, route gavage, dose level Control
In this section, each of the compounds is paired with its reported Mono.
Please report the result as a number followed by the unit.

1) CC1=C(CC(=O)O)c2cc(F)ccc2/C1=C\c1ccc([S+](C)[O-])cc1 (stereo not given) | 2.8%
2) CCc1oc2ccccc2c1C(=O)c1cc(Br)c(O)c(Br)c1 [BENZBROMARONE] | 6.2%
3) ClC(Cl)(Cl)Cl [CARBON TETRACHLORIDE] | 3.4%
4) CN(C)C(=N)N=C(N)N [METFORMIN] | 3%
5) CN(C)CCC=C1c2ccccc2COc2ccccc21 [DOXEPIN] | 3%
6) CCC1(c2ccccc2)C(=O)NC(=O)NC1=O [PHENOBARBITAL] | 3.2%
7) CC(C)N(CCC(C(N)=O)(c1ccccc1)c1ccccn1)C(C)C (stereo not given) [DISOPYRAMIDE] | 2.6%
8) O=NN(CCCl)C(=O)NC1CCCCC1 [LOMUSTINE] | 6.6%
9) CC[C@H]1[C@@H]2C[C@H]3[C@@H]4N(C)c5ccccc5[C@]45C[C@@H]([C@@H]2[C@H]5O)N3[C@@H]1O [AJMALINE] | 10.6%

Please look at the following compound next.
Challenge: Recorded Mono for OCCOCCN1CCN(C(c2ccccc2)c2ccc(Cl)cc2)CC1 (stereo not given) [HYDROXYZINE] , please?
Response given: 2.4%

Cited source for all entries: ChEMBL document CHEMBL3885861
